- TARGET_ENTITY: sarkosyl insoluble (SI) α-synuclein (human α-SYN A53T) (Homo sapiens, UniProt P37840, A53T)
- Construct: expressed in transfected cells
- TEST: MJFF-14-6-4-2 conformation specific ELISA of sarkosyl insoluble α-synuclein after compound treatment
- Assay type: cell-based
- STATED_CONDITIONS: 1 μM compound; protein remaining relative to DMSO control; PFF induced A53T α-synuclein overexpressing HEK293 cells; read-out: Protein Degradation at 1 μM
# remaining activity at 1 µM per entry

Below, each entry is followed by its recorded remaining activity at 1 µM result.
O=C1CCC(N2C(=O)c3ccc(N4CCN(CCN5CCC(OC6CN(CCCN7c8ccccc8Sc8ccccc87)C6)CC5)CC4)cc3C2=O)C(=O)N1 (centres unmarked); 35 to 70%
Cc1ncsc1-c1ccc([C@H](C)NC(=O)[C@@H]2C[C@@H](O)CN2C(=O)[C@@H](NC(=O)COCCOCCOCCOCCOCCOc2ccc3c(c2)Sc2cc([N+](=O)[O-])ccc2N3)C(C)(C)C)cc1; > 120%
O=C1CCC(N2C(=O)c3ccc(N4CCN(CCN5CCC(O[C@H]6C[C@H](Oc7ccc8c(c7)Sc7cc([N+](=O)[O-])ccc7N8)C6)CC5)CC4)cc3C2=O)C(=O)N1 (some centres unmarked); 70 to 120%
COc1cc(/C=C/c2ccc3cc(OCCOCCOCCOCC(=O)N[C@H](C(=O)N4C[C@H](O)C[C@H]4C(=O)N[C@@H](C)c4ccc(-c5scnc5C)cc4)C(C)(C)C)ccc3n2)ccn1; 35 to 70%

INPUT: Please give the measured remaining activity at 1 µM for this molecule: CNc1ccc(-c2nc3ccc(OCCOCCOCC(=O)N[C@H](C(=O)N4C[C@H](O)C[C@H]4C(=O)N[C@@H](C)c4ccc(-c5scnc5C)cc4)C(C)(C)C)cc3s2)cc1
OUTPUT: < 35%
